Form field: relative IC50 (one value per entry).
Test system: MCF-7
methodDescription: relative IC50 (midpoint of fitted logistic curve, plateau may be below 50% inhibition; CellTiter-Glo viability); higher = less potent
measurementContext: 4-OH-tamoxifen in medium 1 µM; 72 h

chemSmiles: Oc1ncnc2[nH]ncc12
relative IC50: > 10 µM

chemSmiles: O=C(Nc1c[nH]nc1-c1nc2ccc(CN3CCOCC3)cc2[nH]1)NC1CC1
relative IC50: > 1 µM

chemSmiles: O=c1[nH]c(=O)n([C@H]2C[C@H](O)[C@@H](CO)O2)cc1F
relative IC50: > 10 µM

----------
Test system: ZR-75-1
methodDescription: relative IC50 (midpoint of fitted logistic curve, plateau may be below 50% inhibition; CellTiter-Glo viability); higher = less potent
measurementContext: 4-OH-tamoxifen in medium 1 µM; 72 h
Structures can show the parent of a compound that is named as a salt.
Form field: relative IC50 (one value per entry).
parameterMeasured: relative IC50

compound: CCC1(c2ccc(N)cc2)CCC(=O)NC1=O (stereo not given) [Aminoglutethimide]
assaySystem: ZR-75-1
parameterMeasured: relative IC50
reportedMeasurement: > 10000 nM
//
compound: CO[C@H](C(=O)[C@@H](O)[C@@H](C)O)[C@@H]1Cc2cc3cc(O[C@H]4C[C@@H](O[C@@H]5C[C@@H](O)[C@H](O)[C@@H](C)O5)[C@H](O)[C@@H](C)O4)c(C)c(O)c3c(O)c2C(=O)[C@H]1O[C@H]1C[C@@H](O[C@@H]2C[C@@H](O)[C@@H](O[C@@H]3C[C@](C)(O)[C@H](O)[C@@H](C)O3)[C@@H](C)O2)[C@H](O)[C@@H](C)O1
assaySystem: ZR-75-1
parameterMeasured: relative IC50
reportedMeasurement: 66.5 nM
//
compound: C[C@@]1(C(=O)Nc2ccc(F)nc2)CCCN1c1nc(Nc2cc(C3CC3)n[nH]2)c2cccn2n1
assaySystem: ZR-75-1
parameterMeasured: relative IC50
reportedMeasurement: > 10000 nM
//
compound: O=C(Nc1ccncc1)C(=O)c1cn(Cc2ccc(Cl)cc2)c2ccccc12
assaySystem: ZR-75-1
parameterMeasured: relative IC50
reportedMeasurement: > 10000 nM
//
compound: Nc1ncn([C@@H]2O[C@H](CO)[C@@H](O)[C@H]2O)c(=O)n1
assaySystem: ZR-75-1
parameterMeasured: relative IC50
reportedMeasurement: > 10000 nM
//
compound: CC[C@H](CO)Nc1nc(NCc2ccccc2)c2ncn(C(C)C)c2n1 [Seliciclib (Roscovitine)]
assaySystem: ZR-75-1
parameterMeasured: relative IC50
reportedMeasurement: > 10000 nM
//
compound: CS(=O)(=O)c1ccc(C(=O)Nc2ccc(Cl)c(-c3ccccn3)c2)c(Cl)c1
assaySystem: ZR-75-1
parameterMeasured: relative IC50
reportedMeasurement: > 10000 nM
//
compound: Cc1ccc([N+](=O)[O-])cc1S(=O)(=O)N(C)/N=C/c1cnc2ccc(Br)cn12 [PIK-75 (HCl)]
assaySystem: ZR-75-1
parameterMeasured: relative IC50
reportedMeasurement: 94.5 nM
//
compound: CC(=O)O[C@@]12CO[C@@H]1C[C@H](O)[C@@]1(C)C(=O)[C@H](O)C3=C(C)[C@@H](OC(=O)[C@H](O)[C@@H](NC(=O)OC(C)(C)C)c4ccccc4)C[C@@](O)([C@@H](OC(=O)c4ccccc4)[C@H]21)C3(C)C
assaySystem: ZR-75-1
parameterMeasured: relative IC50
reportedMeasurement: > 1000 nM
//
compound: CC[C@@]1(O)C(=O)OCc2c1cc1n(c2=O)Cc2cc3ccccc3nc2-1
assaySystem: ZR-75-1
parameterMeasured: relative IC50
reportedMeasurement: 95.6 nM
